Recorded half-life, one value per entry.
# EXPERIMENT DESCRIPTION: Apparent terminal half life in Sprague-Dawley rat at 5 mg/kg, iv by LC/MS/MS analysis
# Assay type: ADME, organism-based
# Parameters: dose 5 mg/kg, route intravenous
# CONDITION PARAMETERS: in vivo, read-out: betat1/2(app) (converted)
Your answer should be a plain number; it is taken to be in h.

Consider the following illustrative entries.
INSERT INTO measurements (sample_smiles, measure, measurement_unit, quantitative_readout) VALUES
  ('C=C[C@@H]1C[C@]1(NC(=O)[C@@H]1C[C@@H](Oc2ncc(OC)c3cc(OC)ccc23)CN1C(=O)[C@@H](NC(=O)OC(C)(C)C)C(C)(C)C)C(=O)NS(=O)(=O)C1CC1', 'half-life', 'h', 3.1),
  ('C=C[C@@H]1C[C@]1(NC(=O)[C@@H]1C[C@@H](Oc2cc(-c3ccccc3)nc3cc(OC)ccc23)CN1C(=O)[C@@H](NC(=O)OC(C)(C)C)C(C)(C)C)C(=O)NS(=O)(=O)C1CC1', 'half-life', 'h', 1),
  ('CC[C@@H]1C[C@]1(NC(=O)[C@@H]1C[C@@H](Oc2nccc3cc(OC)ccc23)CN1C(=O)[C@@H](NC(=O)OC(C)(C)C)C(C)(C)C)C(=O)NS(=O)(=O)C1CC1', 'half-life', 'h', 4.2),
  ('C=C[C@@H]1C[C@]1(NC(=O)[C@@H]1C[C@@H](Oc2nccc3c(OC)cccc23)CN1C(=O)[C@@H](NC(=O)OC(C)(C)C)C(C)(C)C)C(=O)NS(=O)(=O)C1CC1', 'half-life', 'h', 2.2);

Here's the next entry for you.
In: Please give measured half-life of the following entry: C=C[C@@H]1C[C@]1(NC(=O)[C@@H]1C[C@@H](Oc2nccc3ccccc23)CN1C(=O)[C@@H](NC(=O)OC(C)(C)C)C(C)(C)C)C(=O)NS(=O)(=O)C1CC1
Out: 2.2

----------
# Test system: Liver
# EXPERIMENT DESCRIPTION: Drug uptake in intraduodenally dosed Sprague-Dawley rat liver measured per gm of tissue over 4 hrs by LC/MS/MS analysis
# Format: ADME, organism-based
# CONDITION PARAMETERS: in vivo, other
Drug uptake values by entry
Respond with the bare value in ng.

INSERT INTO assay_data (sample_smiles, quantitative_readout) VALUES
  ('C=C[C@@H]1C[C@]1(NC(=O)[C@@H]1C[C@@H](Oc2cc(-c3ccccc3)nc3cc(OC)ccc23)CN1C(=O)[C@@H](NC(=O)OC(C)(C)C)C(C)(C)C)C(=O)NS(=O)(=O)C1CC1', 7850),
  ('C=C[C@@H]1C[C@]1(NC(=O)[C@@H]1C[C@@H](Oc2nccc3cc(OC)ccc23)CN1C(=O)[C@@H](NC(=O)OC(C)(C)C)C(C)(C)C)C(=O)NS(=O)(=O)C1CC1', 64710),
  ('C=C[C@@H]1C[C@]1(NC(=O)[C@@H]1C[C@@H](Oc2cncc3cc(OC)ccc23)CN1C(=O)[C@@H](NC(=O)OC(C)(C)C)C(C)(C)C)C(=O)NS(=O)(=O)C1CC1', 1205);

In: Supply reported Drug uptake belonging to this compound: C=C[C@@H]1C[C@]1(NC(=O)[C@@H]1C[C@@H](Oc2nccc3c(Cl)cccc23)CN1C(=O)[C@@H](NC(=O)OC(C)(C)C)C(C)(C)C)C(=O)NS(=O)(=O)C1CC1
Out: 36160

In: Quickly give me recorded Drug uptake for C=C[C@@H]1C[C@]1(NC(=O)[C@@H]1C[C@@H](Oc2nccc3cc(F)ccc23)CN1C(=O)[C@@H](NC(=O)OC(C)(C)C)C(C)(C)C)C(=O)NS(=O)(=O)C1CC1
Out: 69560

In: Specify Drug uptake for C=C[C@@H]1C[C@]1(NC(=O)[C@@H]1C[C@@H](Oc2nccc3c(C)cccc23)CN1C(=O)[C@@H](NC(=O)OC(C)(C)C)C(C)(C)C)C(=O)NS(=O)(=O)C1CC1 and stop.
Out: 160300

In: Identify the reported Drug uptake for the following entry. C=C[C@@H]1C[C@]1(NC(=O)[C@@H]1C[C@@H](Oc2nccc3cc(OCC)ccc23)CN1C(=O)[C@@H](NC(=O)OC(C)(C)C)C(C)(C)C)C(=O)NS(=O)(=O)C1CC1
Out: 14630

In: For C=C[C@@H]1C[C@]1(NC(=O)[C@@H]1C[C@@H](Oc2ncc(OC)c3ccccc23)CN1C(=O)[C@@H](NC(=O)OC(C)(C)C)C(C)(C)C)C(=O)NS(=O)(=O)C1CC1 , write its Drug uptake.
Out: 232200

----------
# EXPERIMENT DESCRIPTION: Apparent terminal half life in Beagle dog at 3 mg/kg, iv by LC/MS/MS analysis
# Format: ADME, organism-based, Canis lupus familiaris
# Parameters: dose 3 mg/kg, route intravenous
# CONDITION PARAMETERS: in vivo, read-out: betat1/2(app) (converted)
MEASURE: half-life (min)
Use min as the unit, but write only the number.

In: Output measured half-life for this item: C=C[C@@H]1C[C@]1(NC(=O)[C@@H]1C[C@@H](Oc2cc(-c3ccccc3)nc3cc(OC)ccc23)CN1C(=O)[C@@H](NC(=O)OC(C)(C)C)C(C)(C)C)C(=O)NS(=O)(=O)C1CC1
Out: 36

----------
# EXPERIMENT DESCRIPTION: Drug uptake in Sprague-Dawley rat liver at 15 mg/kg, po administered via gavage measured after 24 hrs by LC/MS/MS analysis
# Type: ADME, organism-based
# Design: dose 15 mg/kg, route oral
# CONDITION PARAMETERS: read-out: Drug uptake
MEASURE: concentration at 24 h (µM)
Express it in µM; write the number only.

In: Return value of concentration at 24 h for input C=C[C@@H]1C[C@]1(NC(=O)[C@@H]1C[C@@H](Oc2ncc(OC)c3ccccc23)CN1C(=O)[C@@H](NC(=O)OC(C)(C)C)C(C)(C)C)C(=O)NS(=O)(=O)C1CC1 , no commentary.
Out: 4.2

----------
# EXPERIMENT DESCRIPTION: Apparent terminal half life in Sprague-Dawley rat at 5 mg/kg, iv by LC/MS/MS analysis
# Format: ADME, organism-based
# Set-up: dose 5 mg/kg, route intravenous
# CONDITION PARAMETERS: in vivo, read-out: betat1/2(app) (converted)
With a cut-off of 7 h, any half-life strictly below it is called 1; any half-life meeting it or above is called 0.

In: Take the compound C=C[C@@H]1C[C@]1(NC(=O)[C@@H]1C[C@@H](Oc2nccc3cc(OC)ccc23)CN1C(=O)[C@@H](NC(=O)O[C@H]1CCOC1)C(C)(C)C)C(=O)NS(=O)(=O)C1CC1 and say whether its half-life is less than 7 h.
Out: 1

In: Determine whether this compound shows half-life lower than 7 h (ties excluded): C=C[C@@H]1C[C@]1(NC(=O)[C@@H]1C[C@@H](Oc2nccc3cc(OC)ccc23)CN1C(=O)[C@@H](NC(=O)OC(C)(C)C)C(C)(C)C)C(=O)NS(=O)(=O)C1CC1
Out: 1

In: For this compound, is half-life lower than 7 h? C=C[C@@H]1C[C@]1(NC(=O)[C@@H]1C[C@@H](Oc2nccc3c(Cl)cccc23)CN1C(=O)[C@@H](NC(=O)OC(C)(C)C)C(C)(C)C)C(=O)NS(=O)(=O)C1CC1
Out: 1

In: Does the reported half-life of C=C[C@@H]1C[C@]1(NC(=O)[C@@H]1C[C@@H](Oc2nccc3cc(OC)ccc23)CN1C(=O)[C@@H](NC(=O)OC(C)(C)C)C(C)C)C(=O)NS(=O)(=O)C1CC1 stay below 7 h?
Out: 1

In: Does the reported half-life of the following compound sit strictly below 7 h? C=C[C@@H]1C[C@]1(NC(=O)[C@@H]1C[C@@H](Oc2ncc(OC)c3ccccc23)CN1C(=O)[C@@H](NC(=O)OC(C)(C)C)C(C)(C)C)C(=O)NS(=O)(=O)C1CC1
Out: 0

----------
# System: Liver
# EXPERIMENT DESCRIPTION: Drug uptake in intraduodenally dosed Sprague-Dawley rat liver measured per gm of tissue over 4 hrs by LC/MS/MS analysis
# Assay type: ADME, organism-based
# CONDITION PARAMETERS: in vivo, other
Entries and their measured Drug uptake follow.
Numeric answer only, unit ng assumed.

INSERT INTO measurements (sample_smiles, experimental_target, measure, quantitative_readout) VALUES
  ('C=C[C@@H]1C[C@]1(NC(=O)[C@@H]1C[C@@H](Oc2ccc3ccccc3n2)CN1C(=O)[C@@H](NC(=O)OC(C)(C)C)C(C)(C)C)C(=O)NS(=O)(=O)C1CC1', 'Liver', 'Drug uptake', 52094);

From here, focus on the item given below.
In: Fill in Drug uptake for record C=C[C@@H]1C[C@]1(NC(=O)[C@@H]1C[C@@H](Oc2nccc3c(OC)cccc23)CN1C(=O)[C@@H](NC(=O)OC(C)(C)C)C(C)(C)C)C(=O)NS(=O)(=O)C1CC1
Out: 51260
